System: COLO 205 colon
Experiment: NCI tumour cell line growth inhibition, 48 h
Endpoint label: TGI

- O=S(=O)(O)c1ccc(NN(c2c(O)ccc3ccccc23)S(=O)(=O)O)cc1: > 100 µM
- O=C1CC(NC(=O)C(F)(F)F)c2c(Br)sc(N3CCC(c4ccccc4)CC3)c21 (stereo unspecified): > 100 µM
- [N-]=N[N+]#I1OC(C(F)(F)F)(C(F)(F)F)c2ccccc21: 27 µM
- CC1=C/C(=C(\c2ccc(N(C)C)cc2)c2ccc([N+](C)(C)C)cc2)C=CC1=[N+](C)C: 85.4 µM
- O=C(CCN1CCCCC1CCO)Nc1ccc2c(c1)C(=O)c1ccc(NC(=O)CCN3CCCCC3CCO)cc1C2=O (stereo unspecified): 10.4 µM
- Nc1cc2c(cc1[N+](=O)[O-])[nH]c1c(-c3ccccc3)nccc12: 44.3 µM
- CN(C)c1c(Cl)c(=O)oc2c1ccc1nc(-c3ccccc3)sc12: > 100 µM
- CCC(=O)Sc1ccccc1C(=O)Nc1ccc(Cl)cc1: 32.1 µM
- CC(C)C1CN1CC(O)Cn1ccnc1[N+](=O)[O-] (stereo unspecified): > 100 µM
- Cc1c(Cl)ccc2c1NC(=O)C2(O)CC(=O)c1ccc(Cl)cc1Cl (stereo unspecified): > 50 µM
- CS(=O)(=O)C1S(=O)(=O)OCCOS1(=O)=O: > 100 µM
- CC(=O)[CH-]C(=O)c1ccccc1.CC(=O)[CH-]C(=O)c1ccccc1.[Nd+3].[OH-].[OH3+]: > 100 µM
- COc1ccc(-n2c(CCCC(=O)O)nc3c2C(=O)c2ccccc2C3=O)cc1: > 100 µM
- COc1cc(-c2c3c(cn2S(=O)(=O)c2ccccc2)-c2nc(N)sc2CC3)cc(OC)c1OC: 3.53 µM
- CCOC(=O)NNC(=O)NCCNC(=O)NNC(=O)OCC: > 100 µM
- O=C1N[C@H]2c3c(Cl)sc(Cl)c3C(=O)[C@H]2O1: > 51 µM
- CCOC(=O)c1cc2cc(Cc3ccc4[nH]c(C(=O)OCC)cc4c3)ccc2[nH]1: > 100 µM
- O=C1c2ccn(CCCCN3CCOCC3)c2C(=O)c2c1c(O)c1ccccc1c2O: 34 µM
- Cc1c(Cl)cccc1NC(=O)CC1Sc2ccccc2NC1=O (stereo unspecified): > 100 µM
- O=C(Cc1ccccc1)Oc1ccc2c(-c3ccccc3)c(C(=O)Nc3ccc(Cl)cc3)c(=O)oc2c1: > 100 µM
- N#C/C(=C\c1ccc(CP(=O)(O)O)cc1)C(N)=O: > 100 µM
